Settings: 293.15 K; 40000 kPa; Liquid; Vibrating tube method
Numbers after ± are expanded uncertainties.
Measured mass density accompanies every entry in the list below.
Observable: mass density

Molecule | Result
CCCCCCCC(=O)OC [methyl octanoate] | 902.05 ± 0.97 kg/m3
CCCCCC(=O)OC [methyl hexanoate] | 911.73 ± 0.97 kg/m3
CCCCCCC(=O)OC [methyl heptanoate] | 906.22 ± 0.97 kg/m3
CCCCC(=O)OC [methyl pentanoate] | 918.78 ± 0.97 kg/m3
CCCCCCCCC(=O)OC [methyl nonanoate] | 898.87 ± 0.97 kg/m3
CCCC(=O)OC [methyl butanoate] | 928.67 ± 0.98 kg/m3
